tested on: P. berghei ookinete development; settings: read-out: Pb ODA IC50; this manuscript
So basically every entry gets a class from its IC50, ranges being lower band = under 0.5 µM, central band = from 0.5 µM up to 2 µM, upper band = 2 µM and over

Some solved entries appear below for comparison.
MOLECULE	ASSIGNED_CLASS
O=c1cc(NCCCN(Cc2ccccc2)Cc2ccccc2)[nH]c2ccccc12	upper band
Cc1[nH]c(C)c(-c2ccc(CCc3ccc(N)cc3)cc2)c(=O)c1Cl	central band
Cc1[nH]c(C)c(-c2ccc(OCc3cccc(C(F)(F)F)c3)nc2)c(=O)c1Br	lower band
CC1(C)N=C(N)N=C(N)N1OCCCc1ccccc1.Cl	upper band
Cc1[nH]c(C)c(C2CCC(c3ccc(Cl)cc3)CC2)c(=O)c1Cl (centres unmarked)	lower band

Task: // return the class label for COc1ccc(C23Oc4cc(OC)cc(OC)c4C2(O)C2(CC3c3ccccc3)SCCCS2)cc1 (centres unmarked)
Result: lower band

Task: Form field 'band' for Nc1nc(N)c2c(ccc3c2ncn3Cc2ccccc2)n1
Result: upper band

Task: Please indicate the class for O=C(Nc1nc(-c2ccccn2)cs1)c1ccc(S(=O)(=O)N2CCc3ccccc32)cc1 based on its IC50.
Result: upper band
